Measured values drawn from patent US20230000842A1 for this set.

Target: CLK3 kinase (Homo sapiens, UniProt P49761)
Sequence (P49761 whole entry): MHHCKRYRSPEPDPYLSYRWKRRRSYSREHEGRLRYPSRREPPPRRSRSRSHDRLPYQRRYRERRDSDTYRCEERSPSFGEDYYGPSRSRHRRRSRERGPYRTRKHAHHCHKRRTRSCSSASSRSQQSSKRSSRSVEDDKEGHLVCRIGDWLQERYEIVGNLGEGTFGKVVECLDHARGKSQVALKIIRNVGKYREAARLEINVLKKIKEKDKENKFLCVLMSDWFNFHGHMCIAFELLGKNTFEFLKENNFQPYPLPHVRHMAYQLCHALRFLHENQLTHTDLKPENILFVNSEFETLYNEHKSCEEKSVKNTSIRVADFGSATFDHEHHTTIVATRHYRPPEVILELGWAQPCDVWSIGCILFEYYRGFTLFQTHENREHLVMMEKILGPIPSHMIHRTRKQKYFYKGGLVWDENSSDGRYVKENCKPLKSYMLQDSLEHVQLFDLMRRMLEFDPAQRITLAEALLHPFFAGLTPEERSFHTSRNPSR
Assay: CLK3 kinase activity assay (Z-lyte FRET);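 also: kinase activity read as coumarin/fluorescein emission ratio by FRET, unphosphorylated peptide as 0% and phosphorylated peptide as 100% control, values from non-linear regression of dose-response curves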
Details: Z-lyte Ser/Thr 18 peptide, 156 μM ATP, 1 h at room temperature
measurement-name: EC50 (nM)

Quick one: EC50 for O=C(Nc1cncc(-c2ccc3[nH]nc(-c4cc5c(-c6ccccc6F)nccc5[nH]4)c3c2)c1)C1CCCC1 [compound 331] ?
158

Follow-up item: CN1CCC(Nc2cc(C(=O)Nc3cc4cc(-c5cnn(C)c5)ccc4cn3)ccn2)CC1 [compound 555]
21

Follow-up item: CN(C)Cc1cncc(-c2cnc3[nH]nc(-c4nc5c(-c6cccc(F)c6)cncc5[nH]4)c3c2)c1 [compound 137]
7

(a) FC1(F)CCN(Cc2cncc(-c3ccc4[nH]nc(-c5cc6c(N7CCCCC7)cccc6[nH]5)c4c3)c2)C1 [compound 467]
(b) CN1CCC(n2cc(C(=O)Nc3cc4cc(-c5cncc6[nH]ccc56)ccc4cn3)cn2)CC1 [compound 604]
(c) FC1(F)CCN(Cc2cncc(-c3cnc4[nH]nc(-c5cc6c(-c7ccncc7)cncc6[nH]5)c4c3)c2)C1 [compound 402]
(d) O=C(Nc1cc2cc(-c3cncs3)ccc2cn1)c1ccc2c(c1)CNCC2 [compound 592]
Rank order required: EC50, descending. Ranked list of labels, please, in the requested order.
a, c, d, b
(a: 279 nM, c: 110 nM, d: 43 nM, b: 7 nM)
